# maps each entry to its pEC50, stimulation of cAMP production in LGR8-expressing HEK293T cells
Target: LGR8 (leucine-rich repeat-containing GPCR 8) (human, UniProt Q8WXD0 1-754)
Sequence (Q8WXD0 whole entry): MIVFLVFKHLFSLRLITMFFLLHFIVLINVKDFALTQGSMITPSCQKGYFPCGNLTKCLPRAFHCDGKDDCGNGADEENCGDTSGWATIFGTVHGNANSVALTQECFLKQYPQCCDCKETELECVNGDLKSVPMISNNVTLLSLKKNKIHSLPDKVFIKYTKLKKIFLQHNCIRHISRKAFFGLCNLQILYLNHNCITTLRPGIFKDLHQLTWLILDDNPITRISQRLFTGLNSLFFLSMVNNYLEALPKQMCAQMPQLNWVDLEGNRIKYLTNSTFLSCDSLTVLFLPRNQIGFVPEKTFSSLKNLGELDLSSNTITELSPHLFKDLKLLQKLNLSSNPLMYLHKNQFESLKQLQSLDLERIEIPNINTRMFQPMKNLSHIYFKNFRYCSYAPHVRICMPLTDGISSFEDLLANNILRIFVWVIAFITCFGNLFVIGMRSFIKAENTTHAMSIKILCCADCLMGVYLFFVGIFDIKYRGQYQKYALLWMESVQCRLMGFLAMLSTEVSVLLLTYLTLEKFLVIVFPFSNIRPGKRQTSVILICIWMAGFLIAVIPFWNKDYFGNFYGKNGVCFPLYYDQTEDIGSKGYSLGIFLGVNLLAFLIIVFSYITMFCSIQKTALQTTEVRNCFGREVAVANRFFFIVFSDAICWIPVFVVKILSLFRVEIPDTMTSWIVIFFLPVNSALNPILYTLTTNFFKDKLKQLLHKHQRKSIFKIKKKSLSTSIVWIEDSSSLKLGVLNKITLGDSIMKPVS
Test: cell-based or functional assay
Where no end group is shown, it is not given here.
Keep the answer to the number alone.

Reference set, count: 2
| BINDER | EXPERIMENTAL VALUE |
| --- | --- |
| RLN2 R^A18A (ligand, not shown: small tags and cut ends) chain 1: SWMEEVIKLCGRELVRAQIAICGMSTWSHHHHHH chain 2: QLYSALANKCCHVGCTKASLARFC | 7.56 |
| WT RLN2 (recombinant wild type human RLN2, Myc- and His6-tagged) (ligand, not shown: small tags and cut ends, also called wild type RLN2; wild type peptide) chain 1: SWMEEVIKLCGRELVRAQIAICGMSTWSHHHHHH chain 2: QLYSALANKCCHVGCTKRSLARFC | 7.41 |

Field request: pEC50, stimulation of cAMP production in LGR8-expressing HEK293T cells | item: RLN2 R^A22A (ligand, not shown: small tags and cut ends, not fully specified; ends and bridges not checked; also: N-terminal Myc epitope tag, Construct with the 8-amino acid linker, processed to the mature two-chain form) chain 1: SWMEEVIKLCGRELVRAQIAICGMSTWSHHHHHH chain 2: QLYSALANKCCHVGCTKRSLAAFC
7.51

Fill in: pEC50, stimulation of cAMP production in LGR8-expressing HEK293T cells of RLN2^A19-20 (ligand, not shown: small tags and cut ends, It is read here as both residues changed to alanine) chain 1: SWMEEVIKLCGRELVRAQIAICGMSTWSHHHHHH chain 2: QLYSALANKCCHVGCTKRAAARFC is ___
8.41

Which measured pEC50, stimulation of cAMP production in LGR8-expressing HEK293T cells value corresponds to RLN2 T^A16A (ligand, not shown: small tags and cut ends, not fully specified; ends and bridges not checked; also: N-terminal Myc epitope tag, Construct with the 8-amino acid linker, processed to the mature two-chain form) chain 1: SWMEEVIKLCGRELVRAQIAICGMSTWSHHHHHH chain 2: QLYSALANKCCHVGCAKRSLARFC ?
8.04
